- SYSTEM_TESTED: T1, recombinant human IL6 (human, UniProt P05231 30-212)
- T1 construct: Amine-coupled to a CM5 chip in the Biacore assay; used biotinylated in the Alphascreen assays; also called interleukin-6; biotinylated human IL6
- EXPERIMENTAL_DETAILS: SPR, Biacore 3000; IL6 amine-coupled on CM5 chip, periplasmic extract injected
READOUT_TYPE: koff (s⁻¹)

A: PMP13F12 (VHH, Monovalent Nanobody) VHH: AVQLVDSGGGLVQAGGSLRLSCAASGRTFSSSPMGWFRQAPGKEREFVAAISGRSGNTYYADSVKGRFTISRDNAKNTVYLQMNSLKPEDTAVYYCAAERVGLLLTVVAEGYDYWGQGTQVTVSS
B: PMP9A9 (VHH, Monovalent Nanobody) VHH: QVQLVESGGGLVQPGGSLRLSCAASGFSLDYYGVGWFRQAPGKEREGVSCTSSSDGDTYYADSVKGRFTISRDNAKNTVYLQMNSLKPEDTAVYYCATDLSDYGVCSRWPSPYDYWGQGTQVTVSS
Query block: Hi, I'm comparing two records. Which one has the lower koff, A or B ? Pick one and reply with its label.
Result block: A
